target: Mu-type opioid receptor (Rattus norvegicus)
Sequence (P33535 whole entry): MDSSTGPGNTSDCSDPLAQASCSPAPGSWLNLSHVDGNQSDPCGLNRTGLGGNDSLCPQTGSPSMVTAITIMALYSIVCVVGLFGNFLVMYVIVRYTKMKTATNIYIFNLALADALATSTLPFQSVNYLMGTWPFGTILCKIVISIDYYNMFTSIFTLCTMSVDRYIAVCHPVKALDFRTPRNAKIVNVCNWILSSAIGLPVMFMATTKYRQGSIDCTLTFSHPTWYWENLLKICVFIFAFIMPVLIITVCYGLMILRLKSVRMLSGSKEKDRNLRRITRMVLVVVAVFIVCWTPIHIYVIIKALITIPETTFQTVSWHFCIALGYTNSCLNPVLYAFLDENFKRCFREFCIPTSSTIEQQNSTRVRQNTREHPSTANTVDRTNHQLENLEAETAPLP
pKi: −log10 of the molar value. Where a SMILES comes first, the peptide text is derived from it. [ ]: non-standard residue; d: D form. Dha = C=C(N)C(=O)O
Label No if pKi falls below 7; label Yes in every other case.

Input: Please indicate if the recorded pKi for `NC(=O)[C@H](Cc1ccccc1)NC(=O)[C@H](Cc1c[nH]c2ccccc12)NC(=O)[C@@H]1CCN1C(=O)[C@@H](N)Cc1ccc(O)cc1` meets or exceeds 7.
Output: Yes

Input: Say whether `NC(=O)[C@H](Cc1ccccc1)NC(=O)[C@H](Cc1ccccc1)NC(=O)[C@@H]1C=CCN1C(=O)[C@@H](N)Cc1ccc(O)cc1` shows pKi of 7 or more.
Output: Yes

Input: Check the entry `NC(=O)[C@H](Cc1ccccc1)NC(=O)[C@H](Cc1ccccc1)NC(=O)[C@@H]1CCN1C(=O)[C@@H](N)Cc1ccc(O)cc1` : does pKi equal or exceed 7?
Output: Yes

Input: Hello, I need to know if `NC(=O)[C@H](Cc1ccccc1)NC(=O)[C@H](Cc1ccccc1)NC(=O)C1CN(C(=O)[C@@H](N)Cc2ccc(O)cc2)C1` has measured pKi not below 7. Thanks!
Output: No

Input: Kindly determine if pKi recorded for `NC(=O)[C@H](Cc1ccccc1)NC(=O)[C@H](Cc1c[nH]c2ccccc12)NC(=O)C1CN(C(=O)[C@@H](N)Cc2ccc(O)cc2)C1` is above or exactly 7.
Output: Yes

Input: Say whether C=C(NC(=O)[C@@H](N)Cc1ccc(O)cc1)C(=O)N[C@@H](Cc1ccccc1)C(=O)N[C@@H](Cc1ccccc1)C(N)=O (H-Y[Dha]FF-NH2) shows pKi of 7 or more.
Output: Yes
